Kb values for the compounds below.
Biological target: hMC4-R (Homo sapiens)
Construct: expressed in transfected cells; host or cells: CHO-K1
Assay: cyclic AMP bioassay (ECL) in CHO-K1 cells
Assay type: cell-based
Settings: Table 9C/9D, antagonist potency by Schild analysis; read-out: Kb MC4-R
Bridge positions count the residues as written; N and C are the ends. Square brackets hold non-standard residues; d marks the D form. Peptide text beside a SMILES is read from it. 1Nal = N[C@@H](Cc1cccc2ccccc12)C(=O)O; d2Nal = N[C@H](Cc1ccc2ccccc2c1)C(=O)O; Nle = CCCC[C@H](N)C(=O)O; Ahx = NCCCCCC(=O)O; GABA = NCCCC(=O)O

COMPOUND: CCCC[C@H](NC(C)=O)C(=O)N[C@H]1CSSC[C@@H](C(N)=O)NC(=O)CCCNC(=O)[C@H](Cc2c[nH]c3ccccc23)NC(=O)[C@H](CCCNC(=N)N)NC(=O)[C@@H](Cc2ccc3ccccc3c2)NC(=O)[C@H](Cc2c[nH]cn2)NC1=O (Ac-[Nle]CH[d2Nal]RW[GABA]C-NH2; disulfide 2-8)
Kb (nM): 0.782
//
COMPOUND: CC(=O)N[C@@H](CCc1ccccc1)C(=O)N[C@H]1CC(=O)NCCCC[C@@H](C(N)=O)NC(=O)CCCNC(=O)[C@H](Cc2c[nH]c3ccccc23)NC(=O)[C@H](CCCNC(=N)N)NC(=O)[C@@H](Cc2ccc3ccccc3c2)NC(=O)[C@H](Cc2c[nH]cn2)NC1=O
Kb (nM): 0.824
//
COMPOUND: CCCC[C@H](NC(C)=O)C(=O)N[C@H]1CSSC[C@@H](C(N)=O)NC(=O)[C@H](Cc2cccc3ccccc23)NC(=O)[C@H](CCCNC(=N)N)NC(=O)[C@@H](Cc2ccc3ccccc3c2)NC(=O)[C@H](Cc2c[nH]cn2)NC(=O)[C@@H](C)NC1=O (Ac-[Nle]C[dA]H[d2Nal]R[1Nal]C-NH2; disulfide 2-8)
Kb (nM): 53.6
//
COMPOUND: CC(=O)N[C@@H](CC1CCCCC1)C(=O)N[C@H]1CC(=O)NCCCC[C@@H](C(N)=O)NC(=O)CCCNC(=O)[C@H](Cc2c[nH]c3ccccc23)NC(=O)[C@H](CCCNC(=N)N)NC(=O)[C@@H](Cc2ccc3ccccc3c2)NC(=O)[C@H](Cc2c[nH]cn2)NC1=O
Kb (nM): 0.442
//
COMPOUND: CCCC[C@H](NC(C)=O)C(=O)N[C@H]1CSSC[C@@H](C(N)=O)NC(=O)CCCCCNC(=O)[C@H](Cc2c[nH]c3ccccc23)NC(=O)[C@H](CCCNC(=N)N)NC(=O)[C@@H](Cc2ccc3ccccc3c2)NC(=O)[C@H](Cc2c[nH]cn2)NC1=O (Ac-[Nle]CH[d2Nal]RW[Ahx]C-NH2; disulfide 2-8 (inferred))
Kb (nM): 0.967

* * *

Target: hMC4-R (Homo sapiens, UniProt P32245)
Construct: expressed in transfected cells; host or cells: CHO-K1
Sequence (P32245 whole entry): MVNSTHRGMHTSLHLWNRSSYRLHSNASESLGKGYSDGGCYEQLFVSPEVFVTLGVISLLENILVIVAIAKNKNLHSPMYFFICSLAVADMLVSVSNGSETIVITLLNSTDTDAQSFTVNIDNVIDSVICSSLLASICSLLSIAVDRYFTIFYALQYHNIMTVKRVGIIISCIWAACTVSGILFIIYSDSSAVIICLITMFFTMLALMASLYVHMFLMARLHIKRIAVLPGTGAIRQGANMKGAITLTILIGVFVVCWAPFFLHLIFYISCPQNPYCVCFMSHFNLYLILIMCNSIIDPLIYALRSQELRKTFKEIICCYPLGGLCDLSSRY
Assay: Radioligand binding assay, [125I]-NDP-α-MSH competition, CHO-K1 membranes
Conditions: Table 5; read-out: Ki KMC4-R
pKi: −log10 of the molar value. Bridge positions count the residues as written; N and C are the ends. Square brackets hold non-standard residues; d marks the D form. Peptide text beside a SMILES is read from it. 2Nal = N[C@@H](Cc1ccc2ccccc2c1)C(=O)O; d2Nal = N[C@H](Cc1ccc2ccccc2c1)C(=O)O; Nle = CCCC[C@H](N)C(=O)O
OBSERVED PROPERTY: pKi

COMPOUND: CCCC[C@H](NC(C)=O)C(=O)N[C@H]1CSSC[C@@H](C(N)=O)NC(=O)[C@H](Cc2ccc3ccccc3c2)NC(=O)[C@H](CCCNC(=N)N)NC(=O)[C@@H](Cc2ccc3ccccc3c2)NC(=O)[C@H](Cc2c[nH]cn2)NC(=O)[C@@H](C)NC1=O (Ac-[Nle]C[dA]H[d2Nal]R[2Nal]C-NH2; disulfide 2-8)
RESULT VALUE: 8.60
//
COMPOUND: CC(=O)N[C@@H](CCc1ccccc1)C(=O)N[C@H]1CC(=O)NCCCC[C@@H](C(N)=O)NC(=O)CCCNC(=O)[C@H](Cc2c[nH]c3ccccc23)NC(=O)[C@H](CCCNC(=N)N)NC(=O)[C@@H](Cc2ccc3ccccc3c2)NC(=O)[C@H](Cc2c[nH]cn2)NC1=O
RESULT VALUE: 9.03
